molecular target: Melanocortin receptor 3 (Homo sapiens); format: cell membranes, HEK293, Membrane; settings: read-out: IC50; note: in other assays of this panel Not Active means under 50% inhibition at 10 µM
Sequence (P41968 whole entry): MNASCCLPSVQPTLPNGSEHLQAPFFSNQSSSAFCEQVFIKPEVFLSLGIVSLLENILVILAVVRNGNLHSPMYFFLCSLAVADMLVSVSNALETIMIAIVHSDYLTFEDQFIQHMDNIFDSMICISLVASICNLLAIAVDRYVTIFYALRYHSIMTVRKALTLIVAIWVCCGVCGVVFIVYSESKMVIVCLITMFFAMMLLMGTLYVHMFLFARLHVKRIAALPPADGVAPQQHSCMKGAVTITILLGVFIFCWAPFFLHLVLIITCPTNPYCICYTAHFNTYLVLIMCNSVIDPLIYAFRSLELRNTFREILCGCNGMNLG
MEASURED_PARAMETER: pIC50
Entry type: numeric. Quantity: pIC50, the -log10 of concentration in molar units.

Can you share its pIC50? I mean this compound: "CC[C@H](C)[C@@H](CO[C@@H](Cc1ccccc1)C(=O)N[C@@H](CCS(C)(=O)=O)C(=O)OC(C)C)NC[C@@H](N)CS"
5.47

----------
experiment: DRUGMATRIX: Phosphodiesterase PDE3 enzyme inhibition (substrate: [3H]cAMP + cAMP); assay type: tissue-based, Homo sapiens; details: platelet; Not Active = under 50% inhibition at 10 µM
MEASURED_PARAMETER: Ki

In the examples that follow, each entry is paired with its recorded Ki.
COc1cc(NC(C)CCCN)c2ncccc2c1 (stereo not given): Not Active
Cc1cn([C@H]2C=C[C@@H](CO)O2)c(=O)[nH]c1=O: Not Active
COC(=O)C[C@](O)(CCC(C)(C)O)C(=O)O[C@@H]1C(OC)=C[C@]23CCCN2CCc2cc4c(cc2[C@H]13)OCO4: Not Active
COc1cc([C@@H]2c3cc4c(cc3[C@H](O)[C@H]3COC(=O)[C@H]23)OCO4)cc(OC)c1OC: Not Active
CC(N)Cc1c[nH]c2ccc(OCc3cccs3)cc12 (stereo not given): Not Active
Cc1ccnc2c1NC(=O)c1cccnc1N2C1CC1: Not Active
CCN(CC)C(=S)SSC(=S)N(CC)CC: Not Active
C[C@@H]1[C@H](O)[C@@H](C)/C=C/C=C/C=C/C=C/C=C/C=C/C=C/[C@H](O[C@@H]2O[C@H](C)[C@@H](O)[C@H](N)[C@@H]2O)C[C@@H]2O[C@](O)(C[C@@H](O)C[C@@H](O)[C@H](O)CC[C@@H](O)C[C@@H](O)CC(=O)O[C@H]1C)C[C@H](O)[C@H]2C(=O)O: Not Active

Can you share its Ki? I mean this compound: CCN1CCCC1CNC(=O)c1cc(S(N)(=O)=O)ccc1OC (stereo not given) [SULPIRIDE]
Not Active

Now this one: "NC(=O)CN1CCCC1=O"
Not Active

----------
target: UniProt:Q01959; experiment: DRUGMATRIX: Dopamine Transporter radioligand binding (ligand: [125I] RTI-55); type: cell membranes, CHO-K1, Membrane; settings: cho-k1; Not Active = under 50% inhibition at 10 µM
Sequence (Q01959 whole entry): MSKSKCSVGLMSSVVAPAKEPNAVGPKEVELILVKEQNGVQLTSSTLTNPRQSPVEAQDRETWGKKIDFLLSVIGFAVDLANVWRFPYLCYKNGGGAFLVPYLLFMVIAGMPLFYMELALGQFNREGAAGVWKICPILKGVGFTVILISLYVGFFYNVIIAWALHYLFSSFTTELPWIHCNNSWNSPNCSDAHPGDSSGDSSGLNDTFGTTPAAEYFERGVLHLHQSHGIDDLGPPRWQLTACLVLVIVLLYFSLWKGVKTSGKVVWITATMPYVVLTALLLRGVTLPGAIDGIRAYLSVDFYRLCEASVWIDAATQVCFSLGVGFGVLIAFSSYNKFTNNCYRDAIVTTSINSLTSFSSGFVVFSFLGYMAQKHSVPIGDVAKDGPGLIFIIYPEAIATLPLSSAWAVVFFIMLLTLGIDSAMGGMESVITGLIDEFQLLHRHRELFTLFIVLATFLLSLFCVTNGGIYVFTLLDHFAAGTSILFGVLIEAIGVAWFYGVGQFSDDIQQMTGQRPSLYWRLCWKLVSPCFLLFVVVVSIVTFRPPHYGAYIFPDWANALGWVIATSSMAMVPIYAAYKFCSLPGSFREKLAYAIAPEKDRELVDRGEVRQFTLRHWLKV
MEASURED_PARAMETER: IC50

In the examples that follow, each entry is paired with its recorded IC50.
NCC(CC(=O)O)c1ccc(Cl)cc1 (stereo not drawn): Not Active
c1ccc(Cn2ccnc2)cc1: Not Active
CCN1C[C@]2(COC)[C@H](O)C[C@H](OC)[C@@]34[C@@H]5C[C@@]6(O)[C@H](OC(=O)c7ccccc7)[C@@H]5[C@@](OC(C)=O)([C@@H]([C@H](OC)[C@H]23)[C@@H]14)[C@@H](O)[C@@H]6OC: Not Active
Oc1ccc(/C=C/c2cc(O)cc(O)c2)cc1: Not Active
CCN1CCN(c2cc3c(cc2F)c(=O)c(C(=O)O)cn3C2CC2)CC1: Not Active
O=C1c2ccccc2C(=O)C1c1ccccc1: Not Active

Can you share its IC50? I mean this compound: "COC(=O)C[C@](O)(CCC(C)(C)O)C(=O)O[C@@H]1C(OC)=C[C@]23CCCN2CCc2cc4c(cc2[C@H]13)OCO4"
Not Active

Now this one: "C#C[C@]1(O)CC[C@H]2[C@@H]3[C@H](C)CC4=C(CCC(=O)C4)[C@H]3CC[C@@]21C"
Not Active
